- protocol-notes: Metabolic stability in human liver microsomes assessed as parent compound remaining and mesured after 60 mins in presence of NADPH
- Assay type: ADME, Microsome
- test-conditions: read-out: Stability
parameter: remaining at 1 h (%)

> print(dat)
                               query.smiles  readout.value
1  C[C@]12CC[C@H]3[C@@H](CCC4=CC(=O)CC[C@@]43C)[C@@H]1CC[C@@H]2O            3.9
2  c1ccc(-c2ccc(-c3ccnc(CN4CCC5(CCCC5)CC4)c3)cc2)cc1           43.1
3  CC(C)c1ccc(-c2ccnc(CN3CCC4(CCCC4)CC3)c2)cc1            1.5
4  c1cc(-c2ccc(-c3ccoc3)cc2)cc(CN2CCC3(CCCC3)CC2)n1            0.2

---

- protocol-notes: Cytotoxicity against African green monkey Vero cells assessed as reduction in cell viability incubated for 72 hrs by alamar blue staining based fluorescence microplate reader analysis
- Assay type: toxicity
- test-conditions: African green monkey (Chlorocebus sabaeus)
parameter: IC50 at 72 h

> print(dat)
                               query.smiles  readout.value
1     CC(C)c1ccc(-c2ccnc(CNC3CCCCCC3)c2)cc1       16 µg/mL
2  Cc1ccc(-c2ccc(-c3ccnc(CN4CCC5(CCCC5)CC4)c3)cc2)cc1     ≥ 32 µg/mL
3  C[Si]1(C)CCN(Cc2cc(-c3ccc(C4CCCCC4)cc3)ccn2)CC1     ≥ 32 µg/mL

Source listed as ChEMBL document CHEMBL5321226.
